The values you see were collected from PubChem BioAssay (NCI).

Listing: TGI of selected compounds
tested on: HT29 colon; assay: NCI tumour cell line growth inhibition, 48 h

Look over these answered cases.
CC(=O)O.CN1[CH-]N(Cc2ccc(C#N)cc2)c2ccccc21.[Ag+]; 44.4 µM
CCC(CC)n1cnc2c(-c3cnc(N)cn3)nc(N3CC4CCC(C3)O4)nc21; > 100 µM

May I ask what TGI has been recorded for O=[N+]([O-])c1ncc(N(CCO)CCO)s1 ?
> 100 µM

* * *

system: UO-31 renal; assay: NCI tumour cell line growth inhibition, 48 h
MEASURED_QUANTITY: TGI (µM)
API: value field is a number in µM; no unit string.

CN(C)c1ccc(/C=N/NC(N)=S)nc1; 7.46
COc1cc(CCC[P+](c2ccccc2)(c2ccccc2)c2ccccc2)c(OC)c2c1OCO2; 44.1

Attention now shifts to the item below.
Param readout= TGI; system= UO-31 renal; entry= CC(=O)O.CN1[CH-]N(Cc2ccc(C#N)cc2)c2ccccc21.[Ag+] ; returns value.
30.3

* * *

system: UO-31 renal; assay: NCI tumour cell line growth inhibition, 48 h
As shown below, each of these compounds has a reported TGI value.

What is its TGI for UO-31 renal? Entry: O=C(O)c1nc2cc(Cl)ccc2[nH]c1=O
> 100 µM

UO-31 renal / TGI / O=C(OC1=CCN(Br)C1=O)C1=C(O)C(=O)N(Br)C1 : value?
> 100 µM

Notebook: pull reported TGI for UO-31 renal, entry COC(=O)C1CCC(=O)N1C(c1ccc(OC)cc1)c1cc(OC)c(OC)c(OC)c1 (stereo not given)
> 100 µM

Enter reported TGI observed with UO-31 renal for O=C1c2c(c(=O)[nH]c3ccccc23)[C@H](c2ccccc2)[C@@H]2CCCN12
7.05 µM

Missing value: TGI, UO-31 renal, entry CC1SC(c2ccccc2Cl)N(NC(=O)C(O)c2ccccc2)C1=O (stereo not given) . Fill in?
> 100 µM

# query: TGI | item CCN1CCN(CCNc2nccc(-c3c(-c4ccc(F)c(O)c4)nc4occn34)n2)S1(=O)=O | system: UO-31 renal
> 100 µM

Query for UO-31 renal: what TGI does the record show for Cc1cc(N(CCC#N)CCC#N)ccc1/C(N=Nc1ccc([N+](=O)[O-])cc1)=N\NC(=O)c1cc(Cl)ccc1O ?
56.8 µM

Lab request: please report TGI under test system UO-31 renal for O=C1c2ccccc2N(O)C1(c1ccccc1)C1CCCC=C1N1CCOCC1 (stereo not given)
> 100 µM

Fill in the recorded TGI for this compound, with UO-31 renal as test system: CCOC(=O)c1c(N)sc2c1CC(C)CC2 (stereo not given)
> 100 µM

Under UO-31 renal: TGI value of CN(C)CCNc1ccc2ncn3c4ccc(O)cc4c(=O)c1c23 ?
8.06 µM
